assay-info: Plasma pharmacokinetics of CLB by LC-MS/MS after intramuscular administration
Format: in vivo, SD rats
measurement-conditions: male, SD, im; rat plasma, 6 mg/kg intramuscular
measure-name: Tmax (h)
Form entry: value (h) — number only.

Reported Tmax for CC(C)(C)NCC(O)c1cc(Cl)c(N)c(Cl)c1 (stereo not shown) : what is it?
4

----------
Test system: N2a cell line
assay-info: N2a cell viability versus concentration (IC50)
Assay type: cell-based
measurement-conditions: Mus musculus; N2a cells; called predicted IC50; read-out: IC50 (concentration at which 50% cell survival was observed)
measure-name: IC50
// unit must come after the numeric part

Please provide the recorded IC50 for CC(C)(C)NCC(O)c1cc(Cl)c(N)c(Cl)c1 (stereo not shown) [CLB, Clenbuterol] , tested on N2a cell line.
20 µM

----------
assay-info: Plasma pharmacokinetics of CLB by LC-MS/MS after intramuscular administration
Type: in vivo, SD rats
measurement-conditions: SD, rat, plasma, intramuscular, 6 mg/kg; rats
measure-name: half-life

Reported half-life for CC(C)(C)NCC(O)c1cc(Cl)c(N)c(Cl)c1 (stereo not shown) : what is it?
~30 h

----------
assay-info: Plasma pharmacokinetics of CLB by LC-MS/MS after intramuscular administration
Format: in vivo, SD rats
measurement-conditions: male, SD, rat, plasma, im, 6 mg/kg, rat plasma, 6 mg/kg intramuscular; read-out: Cmax
measure-name: Cmax (ng/mL)
Form entry: value (ng/mL) — number only.

Reported Cmax for CC(C)(C)NCC(O)c1cc(Cl)c(N)c(Cl)c1 (stereo not shown) [CLB, Clenbuterol] : what is it?
120

----------
assay-info: Drug content in brain tissues by LC/MS/MS
Assay type: in vivo, SD rats
measurement-conditions: male, SD, 6 mg/kg; rat brain homogenate, intramuscular injection; read-out: Concentration in brain tissues 24 h after injection
Experimental: The study used 60 male SD rats (BioLASCO, Taiwan; average age, 8 weeks). The study was approved by the Institutional Animal Care and Use Committee (No. 20,190,497) of National Taiwan University. […] LC-MS/MS was used to perform quantitative analysis using an LCMS8030 system (Shimadzu, Japan). […] The concentrations of the QC samples were calculated based on the calibration curve and compared with those of the control samples with the same concentration. […]
measure-name: concentration at 24 h
// unit must come after the numeric part

Reported concentration at 24 h for CC(C)(C)NCC(O)c1cc(Cl)c(N)c(Cl)c1 (stereo not shown) : what is it?
5.24 ng/mL
